Data provenance is ChEMBL document CHEMBL1153250.

test-target: UniProt:Q9UKK3
Sequence (Q9UKK3 whole entry): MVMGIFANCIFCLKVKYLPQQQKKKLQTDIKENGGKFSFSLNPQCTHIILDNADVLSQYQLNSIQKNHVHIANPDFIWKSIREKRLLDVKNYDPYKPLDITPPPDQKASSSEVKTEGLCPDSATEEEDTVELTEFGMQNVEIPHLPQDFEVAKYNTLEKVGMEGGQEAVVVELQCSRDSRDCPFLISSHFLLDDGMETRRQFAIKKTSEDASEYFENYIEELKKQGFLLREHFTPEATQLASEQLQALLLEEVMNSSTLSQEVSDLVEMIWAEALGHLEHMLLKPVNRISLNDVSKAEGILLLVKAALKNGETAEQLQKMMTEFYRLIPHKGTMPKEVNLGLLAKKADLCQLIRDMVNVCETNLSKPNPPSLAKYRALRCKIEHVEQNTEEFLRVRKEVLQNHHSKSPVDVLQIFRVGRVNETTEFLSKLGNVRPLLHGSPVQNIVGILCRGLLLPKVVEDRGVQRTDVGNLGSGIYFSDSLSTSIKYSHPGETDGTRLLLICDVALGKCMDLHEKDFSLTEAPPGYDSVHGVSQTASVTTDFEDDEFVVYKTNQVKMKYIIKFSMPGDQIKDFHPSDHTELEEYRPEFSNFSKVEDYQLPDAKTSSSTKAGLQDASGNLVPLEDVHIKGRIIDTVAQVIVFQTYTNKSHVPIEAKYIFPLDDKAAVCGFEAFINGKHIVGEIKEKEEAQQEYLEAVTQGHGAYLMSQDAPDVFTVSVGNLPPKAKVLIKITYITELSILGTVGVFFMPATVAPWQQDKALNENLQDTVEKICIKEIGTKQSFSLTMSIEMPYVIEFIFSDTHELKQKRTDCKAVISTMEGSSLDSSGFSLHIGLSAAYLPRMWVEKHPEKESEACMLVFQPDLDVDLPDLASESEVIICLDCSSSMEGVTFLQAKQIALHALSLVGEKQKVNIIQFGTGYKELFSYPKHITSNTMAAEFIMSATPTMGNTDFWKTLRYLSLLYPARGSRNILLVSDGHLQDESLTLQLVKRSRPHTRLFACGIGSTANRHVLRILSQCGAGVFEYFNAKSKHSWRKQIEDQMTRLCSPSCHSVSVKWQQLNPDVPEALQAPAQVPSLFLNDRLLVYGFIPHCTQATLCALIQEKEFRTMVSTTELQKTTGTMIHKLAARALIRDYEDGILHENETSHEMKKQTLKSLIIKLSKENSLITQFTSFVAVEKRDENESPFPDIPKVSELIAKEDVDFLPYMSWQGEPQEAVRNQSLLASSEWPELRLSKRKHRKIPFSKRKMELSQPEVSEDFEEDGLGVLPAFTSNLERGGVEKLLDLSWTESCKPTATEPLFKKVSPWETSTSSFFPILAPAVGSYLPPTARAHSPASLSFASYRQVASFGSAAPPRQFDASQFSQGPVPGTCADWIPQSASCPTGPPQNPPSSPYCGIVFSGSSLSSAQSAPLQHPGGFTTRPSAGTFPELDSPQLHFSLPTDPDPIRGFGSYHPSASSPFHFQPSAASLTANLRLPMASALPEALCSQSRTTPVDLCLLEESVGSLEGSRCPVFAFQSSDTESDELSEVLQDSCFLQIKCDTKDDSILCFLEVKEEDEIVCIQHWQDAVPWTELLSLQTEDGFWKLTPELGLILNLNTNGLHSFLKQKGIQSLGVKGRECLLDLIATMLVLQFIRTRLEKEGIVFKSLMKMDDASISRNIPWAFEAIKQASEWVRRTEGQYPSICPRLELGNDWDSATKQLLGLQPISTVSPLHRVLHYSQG
observable: IC50 (nM)
Report as a plain number; the unit nM is understood.

Summary line: O=C1NCC2c3c(cccc31)CCN2C(=O)CCc1cnccn1 (stereo unspecified) , UniProt:Q9UKK3, reported IC50 = 660

###

test-target: Poly [ADP-ribose] polymerase 1 (Homo sapiens, UniProt P09874)
Sequence (P09874 whole entry): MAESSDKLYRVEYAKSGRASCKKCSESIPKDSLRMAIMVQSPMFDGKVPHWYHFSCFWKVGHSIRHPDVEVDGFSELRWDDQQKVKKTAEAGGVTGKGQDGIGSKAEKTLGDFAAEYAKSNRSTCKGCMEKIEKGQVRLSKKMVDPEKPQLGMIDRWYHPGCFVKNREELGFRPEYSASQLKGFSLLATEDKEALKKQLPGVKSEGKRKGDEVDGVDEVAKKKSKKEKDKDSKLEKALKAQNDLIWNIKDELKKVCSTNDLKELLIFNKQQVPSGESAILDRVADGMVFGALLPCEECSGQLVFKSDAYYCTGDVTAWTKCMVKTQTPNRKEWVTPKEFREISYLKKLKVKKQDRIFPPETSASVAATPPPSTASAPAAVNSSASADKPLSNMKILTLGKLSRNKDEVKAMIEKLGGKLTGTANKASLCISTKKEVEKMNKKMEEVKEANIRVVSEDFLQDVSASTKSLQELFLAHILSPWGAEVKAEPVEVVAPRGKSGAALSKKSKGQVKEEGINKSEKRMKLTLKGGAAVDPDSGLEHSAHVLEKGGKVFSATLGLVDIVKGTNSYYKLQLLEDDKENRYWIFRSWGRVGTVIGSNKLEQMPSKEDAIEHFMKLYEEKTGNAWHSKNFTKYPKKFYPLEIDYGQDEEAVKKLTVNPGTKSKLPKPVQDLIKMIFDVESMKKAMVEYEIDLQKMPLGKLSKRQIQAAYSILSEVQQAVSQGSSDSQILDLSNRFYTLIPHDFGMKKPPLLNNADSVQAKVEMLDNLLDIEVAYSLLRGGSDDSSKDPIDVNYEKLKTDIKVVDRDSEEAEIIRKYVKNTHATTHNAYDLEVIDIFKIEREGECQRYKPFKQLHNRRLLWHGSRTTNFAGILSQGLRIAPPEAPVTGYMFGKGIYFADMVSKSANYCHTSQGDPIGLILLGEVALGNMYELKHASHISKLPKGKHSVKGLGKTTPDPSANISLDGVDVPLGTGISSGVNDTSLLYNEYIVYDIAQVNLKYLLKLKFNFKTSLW
procedure-text: Inhibition of human PARP1 by scintillation proximity assay
observable: IC50
Hi, when you answer, please include the unit after the number. Thanks!

Worked cases, IC50 given:
molecule	IC50
O=C1NCC2c3c(cccc31)CCN2C(=O)Cc1ccncc1 (stereo unspecified)	10 nM
O=C1NCC2c3c(cccc31)CCN2C(=O)c1ccccc1 (stereo unspecified)	4 nM

For record O=C1NCC2c3c(cccc31)CCN2C(=O)Cc1ccc(Cl)cc1 (stereo unspecified) the listed IC50 is 5 nM

###

Poly [ADP-ribose] polymerase 1 (Homo sapiens, UniProt P09874): recorded pIC50 for assorted molecules
pIC50 is a log-scale quantity: -log10 of the concentration expressed in molar.

Illustrative cases are given below, each with its answer.
molecule	test-target	pIC50
O=C1NCC2c3c(cccc31)CCN2Cc1ccccc1 (stereo not drawn)	Poly [ADP-ribose] polymerase 1 (Homo sapiens, UniProt P09874)	6.72
CN(C)C(=O)CCC(=O)N1CCc2cccc3c2C1CNC3=O (stereo not drawn)	Poly [ADP-ribose] polymerase 1 (Homo sapiens, UniProt P09874)	8.05
O=C1NCC2c3c(cccc31)CCN2C(=O)CCc1cnccn1 (stereo not drawn)	Poly [ADP-ribose] polymerase 1 (Homo sapiens, UniProt P09874)	8.22
O=C1NCC2c3c(cccc31)CCN2C(=O)Nc1ccccc1 (stereo not drawn)	Poly [ADP-ribose] polymerase 1 (Homo sapiens, UniProt P09874)	7.96
O=C1NCC2NCCc3cccc1c32 (stereo not drawn)	Poly [ADP-ribose] polymerase 1 (Homo sapiens, UniProt P09874)	6.85
O=C1NCC2c3c(cccc31)CCN2C(=O)NCc1ccccc1 (stereo not drawn)	Poly [ADP-ribose] polymerase 1 (Homo sapiens, UniProt P09874)	7.92
O=C1NCC2c3c(cccc31)CCN2C(=O)OCc1ccccc1 (stereo not drawn)	Poly [ADP-ribose] polymerase 1 (Homo sapiens, UniProt P09874)	7.85
O=C1NCC2c3c(cccc31)CCN2C(=O)C1CCNC1 (stereo not drawn)	Poly [ADP-ribose] polymerase 1 (Homo sapiens, UniProt P09874)	9.00
O=C1NCC2c3c(cccc31)CCN2C(=O)CCn1cnc2ccccc21 (stereo not drawn)	Poly [ADP-ribose] polymerase 1 (Homo sapiens, UniProt P09874)	9.00
O=C(O)CCCC(=O)N1CCc2cccc3c2C1CNC3=O (stereo not drawn)	Poly [ADP-ribose] polymerase 1 (Homo sapiens, UniProt P09874)	7.82

Summary: Cc1c(CC(=O)N2CCc3cccc4c3C2CNC4=O)sc2ccccc12 (stereo not drawn) , Poly [ADP-ribose] polymerase 1 (Homo sapiens, UniProt P09874), pIC50 = 7.89

Field pIC50 (system: Poly [ADP-ribose] polymerase 1 (Homo sapiens, UniProt P09874)) for entry O=C1NCC2c3c(cccc31)CCN2C(=O)c1ccc(C(=O)N2CCCNCC2)cc1 (stereo not drawn) = 6.89

Per the reported Poly [ADP-ribose] polymerase 1 (Homo sapiens, UniProt P09874) data, Cc1csc(CC(=O)N2CCc3cccc4c3C2CNC4=O)n1 (stereo not drawn) has pIC50 of 8.22
